tested on: SW-620 colon; experiment: NCI-60 one-dose screen, 48 h; details: 10 µM unless noted
Compounds without any hit were thinned out: in the full panel of roughly 83,000, 20% have a hit. Activity calls are given as the source filed them. The calls were made as follows: active = growth percent below 10; inactive = the rest.
Allowed answers: active, inactive

Qu. Test call for this compound, please: O=C(CC1Sc2ccccc2NC1=O)NNc1cccc(Cl)c1Cl (stereo not given)
Ans. inactive

Qu. Test call for this compound, please: O=C1NC(=S)S/C1=C\c1cc(Br)ccc1O
Ans. inactive

Qu. Test call for this compound, please: C[C@H](C(=O)N[C@@H](Cc1ccc(-c2ccccc2)cc1)C(=O)NC1CC(C)(C)NC(C)(C)C1)c1ccc(-c2ccccc2)c(F)c1
Ans. active

Qu. Test call for this compound, please: ICCC(c1ccccc1)(c1ccccc1)c1ccccc1
Ans. inactive

Qu. Test call for this compound, please: COc1cccc(N2CCN(c3cccc(C)n3)CC2)c1
Ans. inactive

----------
tested on: NCI-H322M lung; test: NCI-60 one-dose screen, 48 h; settings: 10 µM unless noted
Compounds without any hit were thinned out: in the full panel of roughly 83,000, 20% have a hit. The source made the active and inactive calls. How the source made its calls: active means growth percent below 10; inactive means the rest.
Allowed answers: True = active, False = inactive

COc1ccc(Cl)cc1Nc1nc(C(F)(F)F)ccc1C(=O)N/N=C/c1c(Cl)cccc1Cl :: False

Qu. Test call for this compound, please: Cc1ccc(N/N=C(/C(=O)c2ccc(Cl)cc2)c2nc(C)cc(=O)[nH]2)cc1
Ans. False

Qu. Test call for this compound, please: N/C(=N\C(N)=N\c1nc2ccccc2s1)c1ccnc(Cl)c1
Ans. False

Qu. Test call for this compound, please: CNNc1ncnc2c1cnn2-c1ccc(S(N)(=O)=O)cc1
Ans. False

Qu. Test call for this compound, please: Cc1cc(C)c(C(=O)c2cccs2)c(C)c1
Ans. False

Qu. Test call for this compound, please: O=C1NCCc2c1noc2-c1ccccc1
Ans. False

Qu. Test call for this compound, please: CN(C)CCC(=O)Nc1ccc(-n2cc(-c3cccc(NC(=S)Nc4cccc(-c5cn(-c6ccc(NC(=O)CCN(C)C)cc6)nn5)c4)c3)nn2)cc1
Ans. False

Qu. Test call for this compound, please: CC(=O)N1N=C(c2ccc(Cl)cc2)CC1c1c(C)nn(-c2ccccc2)c1N(C)Cc1ccccc1 (configuration not stated)
Ans. False

Qu. Test call for this compound, please: OC(c1cc(-c2cccc(Cl)c2)nc2ccccc12)C1CCCCN1 (configuration not stated)
Ans. True

----------
tested on: SK-MEL-28 melanoma; experiment: NCI-60 one-dose screen, 48 h; settings: 10 µM unless noted
This is part of a sample that, as a whole, favours compounds with a hit. Of some 83,000 tested, about 20% had one in any assay. Activity calls are given as the source filed them. How the source made its calls: active means growth percent below 10; inactive means the rest.
Allowed answers: t = active, f = inactive

Example cases with answers are listed next.
c1ccc(N2c3nc4ccccc4cc3Sc3cc4ccccc4nc32)nc1 :: f
O=CNc1ccc2c(c1)Cc1cc([N+](=O)[O-])ccc1-2 :: f
Clc1ccc2[nH]cc(-c3cncn3CCc3ccccc3)c2c1 :: f
CC1CN(C2CCCCC2)C(=O)NC1=O (stereo not drawn) :: f
COc1ccc(C2=NN(C=O)C(c3cccc(Nc4ccnc5cc(Cl)ccc45)c3)C2)cc1 (stereo not drawn) :: f
COc1ccc(C(=O)/C=C/c2ccc(C)cc2)cc1OC :: f

Qu. Test call for this compound, please: Cc1ccc2c(c1)C(=O)/C(=C\Nc1ccc(C(N)=O)cc1)C(O)O2 (stereo not drawn)
Ans. f

Qu. Test call for this compound, please: Nc1nc(Nc2ccccc2SSc2ccccc2Nc2nc(N)nc(C(Cl)(Cl)Cl)n2)nc(C(Cl)(Cl)Cl)n1
Ans. f

Qu. Test call for this compound, please: O=C(Nc1nc(-c2ccc(Cl)cc2)cs1)c1cc(-c2ccc(Br)cc2)nc2ccc(Cl)cc12
Ans. f

Qu. Test call for this compound, please: CC1c2ccccc2-c2ccccc2N1C (stereo not drawn)
Ans. f

Qu. Test call for this compound, please: COc1cc(C2CC(c3ccc(C)cc3)=NN2C=O)ccc1OCCN(C)C (stereo not drawn)
Ans. f

Qu. Test call for this compound, please: Cc1ccc(C2=NNC(c3sc(Cl)nc3Cl)C2)cc1 (stereo not drawn)
Ans. f

Qu. Test call for this compound, please: Cc1ncc(C(=O)Nc2ccc(CN3CCN(C)CC3)c(C(F)(F)F)c2)cc1C#Cc1cncc2ncccc12
Ans. f

Qu. Test call for this compound, please: CC(=O)[C@H]1CC[C@H]2[C@@H]3C[C@H](C)C4=CC(=O)CC[C@]4(C)[C@H]3C(=O)C[C@]12C
Ans. f

Qu. Test call for this compound, please: COc1cc(/C=C\C(C)=N\Nc2ccccc2)ccc1O
Ans. f

Qu. Test call for this compound, please: COc1ccc(OC)c2c1CCC1(C2)NC(=O)NC1=O (stereo not drawn)
Ans. f

Qu. Test call for this compound, please: C[C@]12CCC(=O)C=C1CCC1C2[C@@H](O)C[C@@]2(C)C1CC[C@]2(O)C(=O)COC(=O)CCC(=O)O (stereo partly drawn)
Ans. f

Qu. Test call for this compound, please: C=C1CCC2C3(C)COC(c4ccccc4)OC3CCC2(C)C1C/C=C1/C(=O)OCC1OC(C)=O (stereo not drawn)
Ans. f

Qu. Test call for this compound, please: O=c1[nH]c(SCc2ccccc2)nc2nc(Nc3ccc(NC(=S)Nc4ccccc4)cc3)nc(-c3ccc(O)cc3O)c12
Ans. f

Qu. Test call for this compound, please: CCN(CC)c1ccc(/C=C/C(=O)c2cccc(NS(C)(=O)=O)c2)cc1
Ans. f

Qu. Test call for this compound, please: Oc1c(Cl)cc(Cl)c(Cl)c1Cc1c(O)c(Cl)cc(Cl)c1Cl
Ans. f

Qu. Test call for this compound, please: CC(=O)/C(=C/c1ccc(Cl)cc1)C(=O)c1ccccc1
Ans. f

Qu. Test call for this compound, please: CC(=O)Nc1cc(C(c2ccccc2)c2ccccc2)cc(C(c2ccccc2)c2ccccc2)c1C
Ans. f

Qu. Test call for this compound, please: C/C(=C\CCc1ccoc1)CC/C=C(\C)CCCN1CCOCC1
Ans. f

Qu. Test call for this compound, please: CCOC(=O)c1cc2oc(/C=C/c3cc(=O)c4cc(Cl)ccc4o3)cc2[nH]1
Ans. f

Qu. Test call for this compound, please: CCCCCCCCCCCCCCCCNC(=O)Nc1ccc2ccccc2c1
Ans. f

Qu. Test call for this compound, please: Cc1n(Cc2ccc3ccccc3c2)cc[n+]1Cc1ccc2ccccc2c1
Ans. t

Qu. Test call for this compound, please: CN1CCN(c2nc3scc(-c4ccccc4)c3c(=O)[nH]2)CC1
Ans. f

Qu. Test call for this compound, please: O=C1/C(=C/c2ccc(F)cc2)Cc2ccccc21
Ans. f

----------
Test system: MDA-MB-435 melanoma
Test: NCI-60 one-dose screen, 48 h
Conditions: 10 µM unless noted
Procedure: Growth inhibition of the MDA-MB-435 human Melanoma tumor cell line is measured as a screen for anti-cancer activity. Cells are grown in 96 well plates and exposed to the test compound for 48 hours. Compounds are tested at a single concentration, which is 10^-5 M for most compounds. The reported endpoint is percent growth (GI% or GIPRCNT), where numbers from 0 - 100% represent growth inhibition, and numbers from -100% - 0 represent cell death. […]
This is part of a sample that, as a whole, favours compounds with a hit. Of some 83,000 tested, about 20% had one in any assay. Active and inactive are the calls of the source. Rule for the calls: active = growth percent below 10; inactive = the rest.
Allowed answers: active, inactive

CCOC(=O)CNC(=O)C1(NC(=O)CNC(=O)OCc2ccccc2)CCCC1 :: inactive
COc1cnc2c(c1)C(=O)c1c-2n(CCCN2CCNCC2)c(=O)c2cc(F)ccc12 :: active
COC(=O)[C@H](Cc1cn(C)cn1)NC(=O)[C@H](Cc1ccccc1)NC(=O)Nc1cc(C(F)(F)F)cc(C(F)(F)F)c1 :: active
Cc1nn2c(/C=C3/C(=O)Nc4cc(Cl)ccc43)c(-c3ccccc3)nc2s1 :: active
Cc1ccc(/C=C(/C#N)n2nnc3ncccc32)cc1 :: active

Qu. Test call for this molecule, please: CN(C)CCC(=O)Nc1ccc(-n2cc(-c3cccc(NC(=S)Nc4cccc(-c5cn(-c6ccc(NC(=O)CCN(C)C)cc6)nn5)c4)c3)nn2)cc1
Ans. inactive

Qu. Test call for this molecule, please: CN(C)c1ccc(-c2nc3ncc(Br)cc3o2)cc1
Ans. inactive

Qu. Test call for this molecule, please: Cc1ccc(C(=O)Cc2ccccc2)c(O)c1
Ans. inactive

Qu. Test call for this molecule, please: FC(F)(F)c1cc(-c2nnc3n2N=C(N2CCCC2)CS3)cc(C(F)(F)F)c1
Ans. inactive

Qu. Test call for this molecule, please: O=[N+]([O-])c1ccc(NS(=O)(=O)c2ccc(Cl)c(Cl)c2)cc1
Ans. inactive

Qu. Test call for this molecule, please: CCN1CC2=C(Nc3nc(SC)[nH]c(=O)c3C2c2cc(OC)c(OC)c(OC)c2)/C(=C/c2cc(OC)c(OC)c(OC)c2)C1 (stereo not given)
Ans. inactive

Qu. Test call for this molecule, please: N#CSCC1CC(O)(c2ccccc2)C(c2ccccc2)C(c2ccc(Cl)cc2)O1 (stereo not given)
Ans. active

Qu. Test call for this molecule, please: COc1cccc(-c2nc(-c3ccc(N)cc3)co2)c1
Ans. inactive

Source listed as PubChem BioAssay (NCI).
